Target: DRB1*0802 (Homo sapiens, UniProt P01903+P01911, A100R/A103L/A169T/F76Y/H45Y/I96F/K41T/L162R/M171V/P40S/Q125H/Q178H/Q39Y/Q99D/R218S/R42G/S66Y/V115G/W38E)
Test: biochemical
Type: binding
No end group written: not given here.

[
  {
    "substance": "TTPIIHKLGDRNSLK [Peptide 1601.17]",
    "IC50": "0.419 µM"
  },
  {
    "substance": "ACSWGMVVLLLVRYK [Peptide 89.0004]",
    "IC50": "4.77 µM"
  },
  {
    "substance": "DHDITDDSDIAYKYA [Peptide 90.0117]",
    "IC50": "> 20 µM"
  },
  {
    "substance": "IVHLKGDPNSLKCLR [Peptide 90.0255]",
    "IC50": "2.21 µM"
  },
  {
    "substance": "TRPRTLHELCEVLEE [Peptide 1543.42]",
    "IC50": "> 20 µM"
  },
  {
    "substance": "RETIEKLLSKLLCVS [Peptide 89.0006]",
    "IC50": "0.652 µM"
  },
  {
    "substance": "SDEISFAGIVTKLPT [Peptide 1601.45]",
    "IC50": "10.7 µM"
  },
  {
    "substance": "GQVIVCPTSISSNQI [Peptide 89.0185]",
    "IC50": "1.63 µM"
  },
  {
    "substance": "NGWFYVEAVVEKKTG [Peptide 90.0029]",
    "IC50": "6.4 µM"
  },
  {
    "substance": "RLTVAKGLSTLLHVP [Peptide 89.0028]",
    "IC50": "0.501 µM"
  },
  {
    "substance": "CQAIELQLALEALNK [Peptide 90.0014]",
    "IC50": "3.59 µM"
  },
  {
    "substance": "ETCMLIQPPKLRSSV [Peptide 89.0029]",
    "IC50": "5.08 µM"
  },
  {
    "substance": "GRVNTHVHNPLLCSS [Peptide 1601.34]",
    "IC50": "2.69 µM"
  },
  {
    "substance": "VHEGIRTYFVQFKDD [Peptide 1601.05]",
    "IC50": "12.2 µM"
  },
  {
    "substance": "AKALQAIELQMMLET [Peptide 89.0171]",
    "IC50": "> 20 µM"
  },
  {
    "substance": "GRAVCGGVLVHPQWV [Peptide 68.0062]",
    "IC50": "> 20 µM"
  },
  {
    "substance": "PDGQAEQATSNYYIV [Peptide 1543.43]",
    "IC50": "> 20 µM"
  },
  {
    "substance": "TAIFGVNPTIAEGFK [Peptide 89.0024]",
    "IC50": "11.1 µM"
  },
  {
    "substance": "GKSLFGMSLMKFLQG [Peptide 89.0019]",
    "IC50": "0.704 µM"
  },
  {
    "substance": "NHQVVPALSVSKAKA [Peptide 89.0168]",
    "IC50": "> 20 µM"
  },
  {
    "substance": "DNELTDDSDIAYYYA [Peptide 90.0085]",
    "IC50": "> 20 µM"
  },
  {
    "substance": "RFHNIMGRWTGRCSE [Peptide 1543.60]",
    "IC50": "0.027 µM"
  },
  {
    "substance": "KTLIKPATLYAHIQC [Peptide 89.0083]",
    "IC50": "0.231 µM"
  },
  {
    "substance": "LKLFLKGVPKKNCIL [Peptide 89.0054]",
    "IC50": "0.341 µM"
  },
  {
    "substance": "QQLLQVQTAHADKQT [Peptide 89.0115]",
    "IC50": "> 20 µM"
  },
  {
    "substance": "WKLIRMECALLYTAK [Peptide 90.0199]",
    "IC50": "2.7 µM"
  },
  {
    "substance": "FIHFIQGAVISFVNS [Peptide 89.0036]",
    "IC50": "3.42 µM"
  },
  {
    "substance": "VDFIVNDNDYLTQAE [Peptide 90.0031]",
    "IC50": "> 20 µM"
  },
  {
    "substance": "CTLVAGEVDYVGLYY [Peptide 90.0252]",
    "IC50": "> 20 µM"
  },
  {
    "substance": "FKKFLKGIPKKSCML [Peptide 89.0073]",
    "IC50": "0.32 µM"
  },
  {
    "substance": "STSDDTVSATQIVRQ [Peptide 1601.31]",
    "IC50": "> 20 µM"
  },
  {
    "substance": "LSQRLNVCQDKILEH [Peptide 1601.21]",
    "IC50": "> 20 µM"
  },
  {
    "substance": "TPEWIDRLTVLQHSF [Peptide 89.0069]",
    "IC50": "0.275 µM"
  },
  {
    "substance": "DSEIAYKYAQLADTN [Peptide 89.0012]",
    "IC50": "1.12 µM"
  },
  {
    "substance": "DIAYKYAQLADVNSN [Peptide 89.0108]",
    "IC50": "> 20 µM"
  },
  {
    "substance": "PPLLITTNINPMLDA [Peptide 89.0139]",
    "IC50": "7.65 µM"
  },
  {
    "substance": "DNDIVDDSEIAYKYA [Peptide 90.0037]",
    "IC50": "> 20 µM"
  },
  {
    "substance": "TLAVSKNKALQAIEL [Peptide 89.0150]",
    "IC50": "> 20 µM"
  },
  {
    "substance": "RLNLDNDEDKENNGD [Peptide 90.0144]",
    "IC50": "4.01 µM"
  },
  {
    "substance": "Ac-NPDAENWNSQFEILEDAA [Peptide 725.01]",
    "IC50": "> 25 µM"
  },
  {
    "substance": "SLSLGFLFLLFFWLD [Peptide 68.0022]",
    "IC50": "> 20 µM"
  },
  {
    "substance": "DYVLDLQPEATDLHC [Peptide 1543.10]",
    "IC50": "> 20 µM"
  },
  {
    "substance": "YLVCGERGFFYTKPT [Peptide 9000.0079]",
    "IC50": "> 54.4 µM"
  },
  {
    "substance": "LNTVKIPPTVQISTG [Peptide 90.0028]",
    "IC50": "> 20 µM"
  },
  {
    "substance": "ESDMAFEYALLADSN [Peptide 90.0055]",
    "IC50": "5.73 µM"
  },
  {
    "substance": "DSEIAYKYAQLADSD [Peptide 89.0051]",
    "IC50": "0.624 µM"
  },
  {
    "substance": "QWAYDNDIVDDSEIA [Peptide 90.0036]",
    "IC50": "> 20 µM"
  },
  {
    "substance": "GKSYFGMSLIHFLKG [Peptide 89.0146]",
    "IC50": "> 20 µM"
  },
  {
    "substance": "GEIYIIEEDTCTMVT [Peptide 90.0202]",
    "IC50": "> 20 µM"
  },
  {
    "substance": "CSAIEVQIALESLST [Peptide 90.0018]",
    "IC50": "> 20 µM"
  },
  {
    "substance": "IHFLKGCIISYVNSK [Peptide 89.0147]",
    "IC50": "> 20 µM"
  },
  {
    "substance": "KERHVNANKRFHNIM [Peptide 1543.59]",
    "IC50": "1.23 µM"
  }
]
